Where do the numbers come from? From patent US7485646B2.

testSystem: serotonin 5-HT3 receptor (Homo sapiens)
Construct: expressed in transfected cells; host or cells: HEK-293 cells (membrane fraction)
Sequence (P46098 24-478): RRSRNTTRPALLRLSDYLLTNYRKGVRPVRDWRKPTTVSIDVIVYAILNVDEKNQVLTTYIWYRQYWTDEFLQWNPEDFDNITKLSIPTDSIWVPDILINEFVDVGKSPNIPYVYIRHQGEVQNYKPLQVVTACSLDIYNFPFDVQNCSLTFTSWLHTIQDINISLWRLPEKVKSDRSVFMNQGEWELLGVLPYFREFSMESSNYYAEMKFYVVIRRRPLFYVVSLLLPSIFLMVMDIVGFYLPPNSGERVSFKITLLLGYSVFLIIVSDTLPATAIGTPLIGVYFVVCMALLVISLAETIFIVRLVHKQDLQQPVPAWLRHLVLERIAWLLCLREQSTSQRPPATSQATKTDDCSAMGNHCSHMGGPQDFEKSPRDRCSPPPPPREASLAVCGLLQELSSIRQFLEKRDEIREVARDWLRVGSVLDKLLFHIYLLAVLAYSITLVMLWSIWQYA
experiment: Serotonin 5-HT3 receptor binding affinity ([3H]-GR-65630 binding inhibition)
setupConditions: 1 μM test compound; membrane fraction from HEK-293 cells; read-out: [3H]-GR65630 binding inhibition rate at 1 μM
propertyLabel: inhibition at 1 µM (%)

C[N+]1(Cc2ccccc2)CCN(C(=O)Nc2cc(Cl)cc(Cl)c2)CC1: 96
C=CC[N+]1(C)CCN(C(=O)Nc2cc(Cl)cc(Cl)c2)CC1: 105
C=CC[N+]1(C)CCN(C(=O)Nc2cc(Cl)ccc2OC)CC1: 92
COc1ccc(Cl)cc1NC(=O)N1CC[N+](C)(C)CC1: 94
COc1ccc(Cl)cc1NC(=O)N1CC[N+](C)(CCO)CC1: 98
C[N+]1(CCO)CCN(C(=O)Nc2cc(Cl)cc(Cl)c2)CC1.[I-]: 104
C[N+]1(CC2CC2)CCN(C(=O)Nc2cc(Cl)cc(Cl)c2)CC1: 98
C[N+]1(C)CCN(C(=O)Nc2cc(Cl)cc(Cl)c2)CC1: 104
CCC[N+]1(C)CCN(C(=O)Nc2cc(Cl)cc(Cl)c2)CC1: 98
